Below, each entry is listed alongside its reported self-cleavage.
B1: HDV Ribozyme (parent)
chain: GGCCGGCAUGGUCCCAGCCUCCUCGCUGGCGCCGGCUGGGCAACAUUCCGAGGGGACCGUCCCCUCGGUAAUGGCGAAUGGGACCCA

- Variants of: B1
- Experiment: self-cleavage, relative activity (ratio to wild type); higher = more cleavage; co-transcriptional
Quantity: self-cleavage

>>> value_reported("U60A A78U")
0.249
>>> value_reported("U9A A77U")
0.506
>>> value_reported("G29A C63U")
0.226
>>> value_reported("G29C C62G")
0.155
>>> value_reported("G5U A83U")
0
>>> value_reported("A71U C86G")
0.752
>>> value_reported("G34C A83G")
0.0959
>>> value_reported("C32A G76A")
0.214
>>> value_reported("U9A A42G")
0.361
>>> value_reported("G59U G80U")
0.19
>>> value_reported("C21G C24A")
0.0437
